# credit: patent US20250127801A1

# RUN_DESCRIPTION: physchem
# TEST_PARAMETERS: FaSSIF, 23 °C, thermodynamic from solid
OBSERVATION_TYPE: solubility thermodynamic at 24 h
Reply with the number, then its unit.

Please report solubility thermodynamic at 24 h for every entry that follows.
1. CC1=NO[C@@]2(CC[C@H](C)N3C[C@H]2n2cc(C(=O)NCc4ccc(F)cc4F)c(=O)c(OC(=O)[C@@H]4CCCN4C(=O)OCOP(=O)(O)O)c2C3=O)C1
2. CC1=NO[C@@]2(CC[C@H](C)N3C[C@H]2n2cc(C(=O)NCc4ccc(F)cc4F)c(=O)c(OCOC(=O)OCC4(COP(=O)(O)O)COC(=O)N4C)c2C3=O)C1 (some centres unmarked)
3. COC1=NO[C@@]2(CC[C@H](C)N3C[C@H]2n2cc(C(=O)NCc4ccc(F)cc4F)c(=O)c(OCOC(=O)OCC4(COP(=O)(O)O)CCC4)c2C3=O)C1
4. CC1=NO[C@@]2(CC[C@H](C)N3C[C@H]2n2cc(C(=O)NCc4ccc(F)cc4F)c(=O)c(OCOC(=O)OC[C@@H]4C[C@@H]4COP(=O)(O)O)c2C3=O)C1
5. CC1=NO[C@@]2(CC[C@H](C)N3C[C@H]2n2cc(C(=O)NCc4ccc(F)cc4F)c(=O)c(OCOC(=O)N4CCOC[C@H]4COP(=O)(O)O)c2C3=O)C1

Result string:
2540 µg/mL
5520 µg/mL
4920 µg/mL
4890 µg/mL
4840 µg/mL
